B1: LINE1-full (parent)
chain: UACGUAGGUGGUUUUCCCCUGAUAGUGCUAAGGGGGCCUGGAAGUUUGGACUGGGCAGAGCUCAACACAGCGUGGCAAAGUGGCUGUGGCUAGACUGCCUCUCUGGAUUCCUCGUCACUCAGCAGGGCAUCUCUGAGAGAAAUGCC

# Variants of: B1
# assay-remarks: self-cleavage, relative activity (ratio to wild type); higher = more cleavage; in vitro, sequencing; the parent is a self-cleaving ribozyme
Each entry gets not satisfied if its self-cleavage stays under 1, and satisfied if its self-cleavage is 1 or above.

Record excerpt, results attached:
UACGUAGGUGGUUUUCCCCUGAUAGUGCUAAGGGGGCCUGGAAGUUUGGACUGGGCAGAGCUCAACACAGCGUGGCAAAGUGGCUGUGGCUAAACUGCCUCUCUGGAUUCCUCGUCACUCACCAGGGCAUCUCUGAGAGAAAUGCC: not satisfied
UACGUAGGUGGCUUUCUCCUGAUAGUGCUAAGGGGGCCUGGAAGUUUGGACUGGGCAGAGCUCAACACAGCGUGGCAAAGUGGCUGUGGCUAGACUGCCUCUCUGGAUUCCUCGUCACUCAGCAGGGCAUCUCUGAGAGAAAUGCC: satisfied
UACGUAGGUGGUUUUCCCCUGAUAGUGCUAAGGGGGCCUGGAAGUUUGGACAGGGCAGAGCUCAACACAGCGUGGCAAAGUGGUUGUGGCUAGACUGCCUCUCUGGAUUCCUCGUCACUCAGCAGGGCAUCUCUGAGAGAAAUGCC: not satisfied
UACGUAGGUGGUUUUCCCCUGAUAGUGCUAAGGGGGCCUGGAAGUUUGGACUGGGCAGAGCUCAACACAGCGUGGCAAAGUGGCUGUGGCUAGACCACCUCUCUGGAUUCCUCGUCACUCAGCAGGGCAUCUCUGAGAGAAAUGCC: not satisfied

Query variant follows.
In: Does self-cleavage meet or surpass 1 for UACGUAGGUGGUUUUCCCCUGAUAGUGCUAUGGGGGCCUGGAAGUUUGGACUGGGCAGAGCUCAGCACAGCGUGGCAAAGUGGCUGUGGCUAGACUGCCUCUCUGGAUUCCUCGUCACUCAGCAGGGCAUCUCUGAGAGAAAUGCC ?
Out: not satisfied

Data origin, for the record: the RNAGym collection of RNA variant scans (doi:10.7554/elife.90254)
